Target: PDGFr (mouse PDGF-β receptor tyrosine kinase) (Mus musculus)
Construct: PCR primers are designed to amplify a fragment of DNA that codes for the intracellular tyrosine kinase domain
Sequence (P05622 599-961 limits assumed): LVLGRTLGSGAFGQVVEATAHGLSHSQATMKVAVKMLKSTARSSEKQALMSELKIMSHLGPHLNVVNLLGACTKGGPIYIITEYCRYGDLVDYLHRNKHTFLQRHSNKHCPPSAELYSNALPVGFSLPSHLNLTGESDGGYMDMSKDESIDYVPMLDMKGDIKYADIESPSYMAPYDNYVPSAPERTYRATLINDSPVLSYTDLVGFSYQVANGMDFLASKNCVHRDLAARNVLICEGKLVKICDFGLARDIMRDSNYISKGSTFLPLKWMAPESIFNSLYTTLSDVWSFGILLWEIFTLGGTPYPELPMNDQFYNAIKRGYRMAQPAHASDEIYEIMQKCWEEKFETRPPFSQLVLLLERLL
Assay: PDGFr tyrosine kinase assay, 32P incorporation into glutamate-tyrosine copolymer
Settings: 50 μM ATP
Entries and their measured IC50 follow.
Express it in µM; write the number only.

>>> measured_number("CN1CCN(CCOc2ccc(Nc3cc4c(cn3)cc(-c3c(Cl)cccc3Cl)c(=O)n4C)cc2)CC1")
0.34

Now for another entry.
"CCN(CC)CCCNc1cc2c(cn1)cc(-c1c(Cl)cccc1Cl)c(=O)n2C" has a reported IC50 of 4

Source of measurements: patent US6150359A
